These entries and their values trace back to PubChem BioAssay (NCI).

Entries and their measured TGI follow.
- System: OVCAR-4 ovarian
- Experimental Details: NCI tumour cell line growth inhibition, 48 h

[[record]]
mol_smiles = "CC(=O)O[C@H]1CC[C@@]2(C)C(=CC[C@@H]3[C@@H]2CC[C@]2(C)c4c(n[nH]c4C)C[C@@H]32)C1"
assay_system = "OVCAR-4 ovarian"
quantity_measured = "TGI"
result = "33.3 µM"

[[record]]
mol_smiles = "CCOC(=O)c1sc(-c2ccc(OS(=O)(=O)C[C@]34CCC(CC3=O)C4(C)C)c(C=O)c2)nc1C"
assay_system = "OVCAR-4 ovarian"
quantity_measured = "TGI"
result = "> 50 µM"


Entry `N#[N+]c1c([O-])c2ccccc2c2ccccc12` — recorded TGI = > 100 µM

* * *

Entries and their measured TGI follow.
- System: NCI-H23 lung
- Experimental Details: NCI tumour cell line growth inhibition, 48 h

[[record]]
molecule = "COC(=O)C1Cc2c(OC)ccc(OC)c2C(O)C1C(=O)OC (stereo unspecified)"
result = "> 100 µM"

[[record]]
molecule = "COc1cc2c(c3c1c(=O)c1ccccc1n3C)C=CC(C)(C)O2"
result = "> 100 µM"

[[record]]
molecule = "COc1ccc2c(O)c(S(=O)(=O)c3ccc(C)cc3)c(=O)oc2c1OC"
result = "> 100 µM"

[[record]]
molecule = "O=C(c1cccs1)c1nccc2c1cnc1ccccc12"
result = "> 100 µM"

[[record]]
molecule = "CC1(C)COC2C(N(Cc3ccccc3)Cc3ccccc3)C(=O)N21 (stereo unspecified)"
result = "> 100 µM"

[[record]]
molecule = "COc1ccc(/C=C2\\C[C@H]3[C@@H]4CCC5=C/C(=N/O)CC[C@]5(C)[C@H]4CC[C@]3(C)\\C2=N\\O)cc1"
result = "> 100 µM"

[[record]]
molecule = "CN=C(Nc1ccc(OC)c2ccccc12)SC"
result = "> 10 µM"

[[record]]
molecule = "OC1=CN=COc2ccccc21"
result = "> 100 µM"

[[record]]
molecule = "O=c1[nH]nc(-c2ccccc2)n1/N=C/c1ccccc1O"
result = "> 100 µM"

[[record]]
molecule = "N#Cc1c(=O)c2ccccc2n2ccccc12"
result = "> 100 µM"


Entry `COc1cc(-c2ccc(N=Nc3ccc4c(S(=O)(=O)O)cc(S(=O)(=O)O)c(N)c4c3O)c(OC)c2)ccc1N=Nc1ccc2c(S(=O)(=O)O)cc(S(=O)(=O)O)c(N)c2c1O` — recorded TGI = > 100 µM

Entry `CC1(C)CO[P@@](=S)(c2ccccn2)O[C@@H]1c1ccccc1` — recorded TGI = > 100 µM

* * *

- Tested on: RPMI-8226 leukemia
- Experimental Details: NCI tumour cell line growth inhibition, 48 h
Entries and their measured GI50 follow.

[[record]]
compound = "Clc1ccc(/C=C/c2ccc3ccccc3n2)cc1"
result = "0.482 µM"

[[record]]
compound = "N=C(N)c1ccc(-c2ccc(-c3ccc(Cl)c(Cl)c3)s2)cc1"
result = "1.89 µM"


// next entry
Entry CC(C)(C)NCC(O)COc1c(Br)c(Br)c(Br)c2c1OC(C)(C)C2 (stereo not drawn) — recorded GI50 = 1.45 µM

* * *

- Test system: SF-539 CNS
- Experimental Details: NCI tumour cell line growth inhibition, 48 h
Quantity Measured: TGI (µM)
Answer with a number only, understood to be in µM.

[[record]]
molecule = "COc1ccc(C2=NC(=O)NC2c2ccc(OC)cc2)cc1 (configuration not stated)"
quantity_measured = "TGI"
result = 54.8

[[record]]
molecule = "CCC(C)C(N)C(=O)N/N=C\\c1c2c(nc3ccccc13)-c1cc3c(c(=O)n1C2)COC(=O)[C@]3(O)CC (some centres not stated)"
quantity_measured = "TGI"
result = 0.0223

[[record]]
molecule = "O=C1c2cccnc2-c2nc(-c3cccnc3)cc3c2c1nc1ccccc13"
quantity_measured = "TGI"
result = 3.6

[[record]]
molecule = "CCOC(=O)c1sc(-c2ccc(OS(=O)(=O)C[C@]34CCC(CC3=O)C4(C)C)c(C=O)c2)nc1C"
quantity_measured = "TGI"
result = 1.85

[[record]]
molecule = "CCCCCCCCCc1ccc(OCCOCCOCCOCCOCCOCCOCCOCCOCCO)cc1"
quantity_measured = "TGI"
result = 2.67

[[record]]
molecule = "CCCCCCCCC/C=C1/CC(CO)(COC(=O)CC(C(C)C)C(C)C)OC1=O (configuration not stated)"
quantity_measured = "TGI"
result = 24.2


Entry `N#[N+]c1c([O-])c2ccccc2c2ccccc12` — recorded TGI = 91

Entry COc1cc(OCc2cccc(-c3ccccc3)c2C)cc(OC)c1CN1CCCCC1C(=O)NCCOCCOCCN (configuration not stated) — recorded TGI = 3.25

Entry CC(NC(=O)Cc1ccc(C(F)(F)P(=O)(OCc2ccc([N+](=O)[O-])o2)N(C)CCCCCl)cc1)c1ccc(OCC2CCCCC2)c(C(N)=O)c1 (configuration not stated) — recorded TGI = 13.4

Entry `Nc1nc(N)c2cc(Sc3ccc4ccccc4c3)ccc2n1` — recorded TGI = 5.04
